- system under test: T1, rat MASP-2 D4-6 recombinant protein (rat, UniProt Q9JJS8 298-685)
- T1 construct: Made 'similarly' to the human protein (N-terminal his6 tag)
- T1 sequence (Q9JJS8 other isoform, or with tags, fused parts or gaps limits assumed): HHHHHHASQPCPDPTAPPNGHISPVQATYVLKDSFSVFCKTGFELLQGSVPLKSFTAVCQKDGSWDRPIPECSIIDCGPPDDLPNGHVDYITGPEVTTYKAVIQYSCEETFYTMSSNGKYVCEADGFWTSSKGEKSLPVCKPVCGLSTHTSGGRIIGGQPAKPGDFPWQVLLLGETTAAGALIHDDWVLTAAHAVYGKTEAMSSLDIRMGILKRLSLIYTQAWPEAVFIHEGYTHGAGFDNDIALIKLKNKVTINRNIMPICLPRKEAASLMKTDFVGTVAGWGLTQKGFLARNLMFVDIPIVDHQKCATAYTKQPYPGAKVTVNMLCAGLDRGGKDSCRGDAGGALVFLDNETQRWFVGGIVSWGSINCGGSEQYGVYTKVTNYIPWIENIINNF
- measurement notes: ELISA, antigen coated, chimeric IgG titrated, anti-human Fc-HRP
Each item that follows carries a reported EC50.

binder	EC50, nM
chimeric antibody 16A17 (antibody, V domains shown) VH: DVQLQESGPGLVKPSQSLSLTCTVTGYSITSDYAWKWIRQFPGNKLEWMGYISYSGSTSYHPSLKGRISITRDTSKNQFFLQLNSVTADDTATYYCAILGYYAMDYWGQGTSVTVSS VL: DIVMTQSQKFMSTSVGDRVSITCKASQNVRVDVAWYQQKSGQSPRALIYLASNRHTGVPDRFTGSGSGTDFTLTITNVQSEDLADYFCPQHWSYPLTFGGGTKLEIK	4.3
chimeric antibody 10L3 (antibody, V domains shown) VH: DVQLQESGPGLVKPSQSLSLTCTVTGYSITSDYAWNWIRQFPGNKLEWMGYISYSGRTSYNPSLKSRISITRDTSKNQFFLQLNSVTTEDTATYYCAKLGGGHGMDYWGQGTSVTVSS VL: IVMTQSQKFMSTSVGDRVSVTCKASQNVDTNVAWYQQKPGQSPKALIYSASYRYSGVPDRFTGSGSGTDFTLTISNVQSEDLAEYFCLQYNSYLTFGSGTKLELK	30.2
chimeric antibody 3B9 (antibody, V domains shown) VH: DVQLQESGPGLVRPSQSLSLTCTVTGYSITSDYAWNWIRQFPGNKLEWMGYISYSGRTSYNPSLKSRLSITRDTSKNQFFLQLNSVSSADTATYYCAIISTAVDFDYWGQGTTLTVSS VL: QTVLTQSPAIMSASLGERVTMTCTASSSVSSSYLLWYQQKPGSSPKLWIYSTSKLASGVPVRFSGSGSGTSYSLTISSMEADDAATYYCLQYNRSPLTFGAGTKLELK	1.62

This collection of values is drawn from patent US20240067751A1.
